System: TO-3-N3 (biotin conjugate)
Assay: pull-down binding Z-score (relative to library population); higher = stronger binding
Conditions: RNA library: Library-2
Class t: pull-down binding Z-score at least 0.5. Class f: pull-down binding Z-score below 0.5.

POLYMER_SEQUENCE	GROUP_LABEL
GUUCUAAGUAUUGCUCCAAUAAUGUUCUCAAACAAAAUGGCGAGACUGGGAAAAGGGUAUAUGUUUGAGAGCAAGAGUAUGAAACUUAGAAC [IAV_invivo_PB1_2_Motif_18+IAV_invivo_PB1_2_Motif_18]	t
GGCUGGAUCGAGUGAGCAAGCAGCAGAGGCC [IAV_invivo_M1_M2_7_Motif_14+IAV_invivo_M1_M2_7_Motif_14]	f
AAGGCCCUUGGGCACCCCAGGCCUU [hsa-mir-5700]	f

Decide: pull-down binding Z-score of GAAGCUCCUAUAGCUCCUGUAGCUUC [hsa-mir-578] >= 0.5? f

Please tell me: is the sequence UCUUCCCGGAGUCGGGAAAA [hsa-mir-320a] at or over 0.5 in terms of pull-down binding Z-score? f

Can UGACGAUGCUGUUGUGUGUUUCAAUAGCACUUAUGCAUCUCA [SHAPE_invitro_SARS-CoV-2_Motif_289] be said to have pull-down binding Z-score at or above 0.5? t

Please check the record GUAUGAGUGCCACAGAGCCGUCAUAA [hsa-mir-9-3] and state if its pull-down binding Z-score is at or above 0.5. t

====

Test system: TO-3-N3 (biotin conjugate)
Assay: pull-down binding Z-score (relative to library population); higher = stronger binding
Conditions: RNA library: Library-2
Outcome label depends on pull-down binding Z-score relative to -0.6: at/above gives TRUE, below gives FALSE.

                           polymer_sequence  group_label
0       CUGUGAAUCCAAGAUCCACA [hsa-mir-4527]         TRUE
1  UCUUUAAGGAAGGAAGUUCUGUUGAAUUAAAACACUUCUUCUUUGCUCAGGA [DMSMaPseq_invitro_SARS-CoV-2_Motif_265]        FALSE
2  UGUUUAUGUUAUUUAUGGUUAAACA [hsa-mir-376c]        FALSE
3  UGGUACUGAAGAUGAUUACCA [SHAPE_invitro_SARS-CoV-2_Motif_57]         TRUE
4  GCUGGUCUGACUCACAUGAUGAUCUGGC [IAV_invivo_NP_5_Motif_8+IAV_invivo_NP_5_Motif_8]        FALSE
5  GAACUAACUAACCAGAACUAUUUUGUUC [hsa-mir-4652]         TRUE

Would you say GUGGAGGGUGGUGCCGCCGGGGCCGGGCGCUGUUUCAGCUCGCUUCUCCCCCCAC [hsa-mir-1224] shows pull-down binding Z-score at minimum -0.6? TRUE

Hi, just wondering whether UAGUACAGGUGAGAUUGUACUG [hsa-mir-3920] shows pull-down binding Z-score of -0.6 or higher. FALSE

Given GAUGCUGUCUAUUCUAAAGGUAC [hsa-mir-101-1] , state whether its pull-down binding Z-score is at least -0.6. FALSE

====

Tested on: G-clamp-N3 (biotin conjugate)
Test: pull-down binding Z-score (relative to library population); higher = stronger binding
Settings: RNA library: Library-1 (pre-miRNA loops + repeats)
METRIC_NAME: pull-down binding Z-score
Answers are plain numbers.

Guide cases for pull-down binding Z-score, answers given:
In [3]: df
Out[3]:
                           polymer_sequence  result
0  UGUGUUCAGUGGAACCAAGGUAAACACA [hsa-mir-624]    1.58
1     AGUUGUGAAUUCUCAAAACACCU [hsa-mir-660]  -0.342
2  AGACAGCCUGAGUUGGAGGCUCAUCUUCACUUCUUGCUGUGU [hsa-mir-3168]  -0.917
3  GGAGGCCCCGCCCUGCUGCCGACCCUGUGGAGCGGAGGGUGAAGCCUCC [hsa-mir-3180-5]   0.844
4  ACUAGAUUUGAAUCCAGACCUUUAGU [hsa-mir-5584]  -0.461
5         GAUCCUUUGUUCUGGAUC [hsa-mir-7856]   0.436
6   GAUUUUUUAGAUUCUAAAGAAAC [hsa-mir-1255a]   -1.12
7  AUGUGAUUGCUGUCCCAAACUCAUGU [hsa-mir-135b]  -0.794

Quick one: give me pull-down binding Z-score for each item below, same order please.
1. AUUUCCCAAAGUUGGGAAAA [hsa-mir-320b-2]
2. AGCUGUUGGCCAUGGCGACAACACCU [hsa-mir-6742]
3. UUUAGAUUUAAAUAGUGAUUGUCUAG [hsa-mir-29b-1]

[-1.23, 0.213, 0.526]
